assay: Phase I study CXR1002-001: plasma pharmacokinetics (LC-MS/MS); type: in vivo, human; details: human, plasma, oral, 200 mg, Patient 008 Dose 200 mg; 674 hr; read-out: Concentration
MEASURE: concentration at 674 hr (µM)
Reply with just the number (in µM).

// query concentration at 674 hr value for entry `O=C(O)C(F)(F)C(F)(F)C(F)(F)C(F)(F)C(F)(F)C(F)(F)C(F)(F)F`
356

* * *

assay: Phase I study CXR1002-001: plasma pharmacokinetics (LC-MS/MS); format: in vivo, human; conditions: human, plasma, po, 1000 mg, Patient 041, 1000 mg weekly oral dose, Time 4 hr; read-out: Concentration (plasma level)
MEASURE: concentration at 4 hr (µM)
Give the number; µM is assumed, so skip it.

What does the data say about its concentration at 4 hr? Entry: `O=C(O)C(F)(F)C(F)(F)C(F)(F)C(F)(F)C(F)(F)C(F)(F)C(F)(F)F`
207
